Biological target: T1, L1-CAM recombinant protein (His Tag), human (human, UniProt P32004 20-1120)
T1 construct: Bought protein; also called CD171; human L1-CAM; not shown: His tag
T1 sequence (P32004 20-1120 limits assumed): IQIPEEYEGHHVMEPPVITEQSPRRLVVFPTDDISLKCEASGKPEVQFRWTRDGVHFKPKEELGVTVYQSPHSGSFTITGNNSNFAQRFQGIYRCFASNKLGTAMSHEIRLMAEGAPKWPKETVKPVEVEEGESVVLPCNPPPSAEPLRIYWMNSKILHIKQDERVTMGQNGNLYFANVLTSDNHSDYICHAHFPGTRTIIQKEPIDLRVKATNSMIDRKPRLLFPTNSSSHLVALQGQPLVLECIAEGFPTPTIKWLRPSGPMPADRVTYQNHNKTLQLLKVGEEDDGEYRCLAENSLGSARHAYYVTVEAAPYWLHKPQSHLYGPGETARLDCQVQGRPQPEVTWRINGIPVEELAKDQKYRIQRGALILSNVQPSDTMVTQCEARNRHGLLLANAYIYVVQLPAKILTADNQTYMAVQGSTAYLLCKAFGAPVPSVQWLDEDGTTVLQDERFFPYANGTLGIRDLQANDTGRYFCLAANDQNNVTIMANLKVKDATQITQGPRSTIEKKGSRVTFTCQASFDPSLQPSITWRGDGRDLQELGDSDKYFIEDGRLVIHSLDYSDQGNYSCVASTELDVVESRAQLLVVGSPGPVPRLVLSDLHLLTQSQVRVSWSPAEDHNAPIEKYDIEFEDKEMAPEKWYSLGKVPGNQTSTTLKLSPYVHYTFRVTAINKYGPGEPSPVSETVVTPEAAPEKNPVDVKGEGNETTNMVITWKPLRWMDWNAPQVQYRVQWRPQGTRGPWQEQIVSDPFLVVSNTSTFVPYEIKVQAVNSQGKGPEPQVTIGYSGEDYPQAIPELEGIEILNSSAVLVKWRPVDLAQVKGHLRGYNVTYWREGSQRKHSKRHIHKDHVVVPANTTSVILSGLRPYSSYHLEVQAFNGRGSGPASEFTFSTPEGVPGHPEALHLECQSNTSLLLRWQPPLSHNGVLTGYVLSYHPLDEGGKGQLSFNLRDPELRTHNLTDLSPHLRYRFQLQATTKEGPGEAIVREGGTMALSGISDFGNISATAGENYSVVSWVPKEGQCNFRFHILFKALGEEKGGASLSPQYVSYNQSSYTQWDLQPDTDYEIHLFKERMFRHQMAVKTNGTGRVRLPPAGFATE
Test: ELISA, human L1-CAM coated at 2 µg/ml
endpoint: EC50 (µg/mL)
State the answer as a number, implicitly in µg/mL.

Reference set (3 entries):
binder	EC50, µg/mL
CE7-variant5 (antibody, V domains shown, Human IgG1 kappa, L234A L235A P331S; also called CE7-12-VHA-315-VLA; humanized variant 5) VH: QVQLVQSGAEVKKPGASVKVSCKASGYTFTGYWMHWVRQAPGQGLEWIGEINPSNGRTNYNERFKSRVTLTVDKSISTAYMELSRLRSDDTAVYFCARDYYGTSYNFDYWGQGTLVTVSS VL: EIVMTQSPATLSVSPGERATLSCKANEDINNRLAWYQQKPGQAPRLLISGATNLVTGIPARFSGSGSGKEYTLTISSLQSEDFAVYYCQQYWSTPFTFGQGTKLEIKR	0.0282
CE7-variant9 (antibody, V domains shown, Human IgG1 kappa, L234A L235A P331S; also called CE7-12-VHB-133-VLA; humanized variant 9) VH: QVQLVQSGAEVKKPGASVKVSCKASGYTFTGYWMHWVRQAPGQGLEWIGEINPSNGRTNYNERFQGRVTLTVDKSISTAYMELSRLRSDDTAVYYCARDYYGTSYNFDYWGQGTLVTVSS VL: DIQMTQSPSSLSASVGDRVTITCKANEDINNRLAWYQQKPGKAPKLLISGATNLVTGVPSRFSGSGSGKDYTLTISSLQPEDIATYYCQQYWSTPFTFGQGTKLEIKR	0.0197
CE7-variant15 (antibody, V domains shown, Human IgG1 kappa, L234A L235A P331S; also called CE7-434-VHA-133-VLA; humanized variant 15) VH: QVQLQQWGAGLLKPSETLSLTCAAYGYTFTGYWMHWIRQPPGKGLEWIGEINPSNGRTNYNERLKSRVTLSVDKSKNQASLKLSSVTAADTAVYFCARDYYGTSYNFDYWGQGTLVTVSS VL: DIQMTQSPSSLSASVGDRVTITCKANEDINNRLAWYQQKPGKAPKLLISGATNLVTGVPSRFSGSGSGKDYTLTISSLQPEDIATYYCQQYWSTPFTFGQGTKLEIKR	0.0112

## Task Can you share its EC50? I mean this binder: CE7-variant10 (antibody, V domains shown, Human IgG1 kappa, L234A L235A P331S; also called CE7-12-VHB-133-VLB; humanized variant 10) VH: QVQLVQSGAEVKKPGASVKVSCKASGYTFTGYWMHWVRQAPGQGLEWIGEINPSNGRTNYNERFQGRVTLTVDKSISTAYMELSRLRSDDTAVYYCARDYYGTSYNFDYWGQGTLVTVSS VL: DIQMTQSPSSLSASVGDRVTITCQANEDINNRLAWYQQKPGKAPKLLISGATNLVTGVPSRFSGSGSGKDYTFTISSLQPEDIATYYCQQYWSTPFTFGQGTKLEIKR
## Result 0.0136

## Task Can you share its EC50? I mean this binder: CE7-variant25 (antibody, V domains shown, CE7-1-2-VHD + CE7-1-NL1-VLA; human IgG1 kappa, L234A L235A P331S N297A (aglycosylated); also called humanized variant 25) VH: QVQLVQSGAEVKKPGASVKVSCKASGYTFTGYWMHWVRQAPGQGLEWMGEINPSNGRTNYNEKFQGRVTLTVDKSISTAYMELSRLRSDDTAVYYCARDYYGTSYNFDYWGQGTLVTVSS VL: DIQMTQSPSSLSASVGDRVTITCKANEDINNRLAWYQQKPGKAPKLLISGATNLVTGVPSRFSGSGSGKDYTLTISSLQPEDFATYYCQQYWSTPFTFGQGTKLEIKR
## Result 0.0272

## Task Can you share its EC50? I mean this binder: CE7-variant17 (antibody, V domains shown, Human IgG1 kappa, L234A L235A P331S; also called CE7-434-VHA-315-VLA; humanized variant 17) VH: QVQLQQWGAGLLKPSETLSLTCAAYGYTFTGYWMHWIRQPPGKGLEWIGEINPSNGRTNYNERLKSRVTLSVDKSKNQASLKLSSVTAADTAVYFCARDYYGTSYNFDYWGQGTLVTVSS VL: EIVMTQSPATLSVSPGERATLSCKANEDINNRLAWYQQKPGQAPRLLISGATNLVTGIPARFSGSGSGKEYTLTISSLQSEDFAVYYCQQYWSTPFTFGQGTKLEIKR
## Result 0.0108

## Task Can you share its EC50? I mean this binder: CE7-variant23 (antibody, V domains shown, CE7-1-2-VHC + CE7-1-NL1-VLC; human IgG1 kappa, L234A L235A P331S N297A (aglycosylated); also called humanized variant 23) VH: QVQLVQSGAEVKKPGASVKVSCKASGYTFTGYWMHWVRQAPGQGLEWIGEINPSNGRTNYNEKFQGRVTLTVDKSISTAYMELSRLRSDDTAVYYCARDYYGTSYNFDYWGQGTLVTVSS VL: DIQMTQSPSSLSASVGDRVTITCRANEDINNRLAWYQQKPGKAPKLLISGASNLVSGVPSRFSGSGSGKDYTLTISSLQPEDFATYYCQQYWSTPFTFGQGTKLEIKR
## Result 0.037

## Task Can you share its EC50? I mean this binder: CE7-variant12 (antibody, V domains shown, Human IgG1 kappa, L234A L235A P331S; also called CE7-12-VHB-315-VLB; humanized variant 12) VH: QVQLVQSGAEVKKPGASVKVSCKASGYTFTGYWMHWVRQAPGQGLEWIGEINPSNGRTNYNERFQGRVTLTVDKSISTAYMELSRLRSDDTAVYYCARDYYGTSYNFDYWGQGTLVTVSS VL: EIVMTQSPATLSVSPGERATLSCRANEDINNRLAWYQQKPGQAPRLLISGATNLVTGIPARFSGSGSGKEFTLTISSLQSEDFAVYYCQQYWSTPFTFGQGTKLEIKR
## Result 0.0126

## Task Can you share its EC50? I mean this binder: CE7-variant19 (antibody, V domains shown, CE7-1-2-VHB + CE7-1-NL1-VLC; human IgG1 kappa, L234A L235A P331S N297A (aglycosylated); also called humanized variant 19) VH: QVQLVQSGAEVKKPGASVKVSCKASGYTFTGYWMHWVRQAPGQGLEWIGEINPSNGRTNYNERFQGRVTLTVDKSISTAYMELSRLRSDDTAVYYCARDYYGTSYNFDYWGQGTLVTVSS VL: DIQMTQSPSSLSASVGDRVTITCRANEDINNRLAWYQQKPGKAPKLLISGASNLVSGVPSRFSGSGSGKDYTLTISSLQPEDFATYYCQQYWSTPFTFGQGTKLEIKR
## Result 0.0335

## Task Can you share its EC50? I mean this binder: LV7 (antibody, V domains shown, CE7-VH-chimeric + CE7-VL-chimeric-WL92Y; chimeric CE7, human IgG1 kappa, L234A L235A P331S N297A; also called liability variant 7) VH: QVQLQQPGAELVKPGASVKLSCKASGYTFTGYWMHWVKQRPGHGLEWIGEINPSNGRTNYNERFKSKATLTVDKSSTTAFMQLSGLTSEDSAVYFCARDYYGTSYNFDYWGQGTTLTVSS VL: DIQMTQSSSSFSVSLGDRVTITCKANEDINNRLAWYQQTPGNSPRLLISGATNLVTGVPSRFSGSGSGKDYTLTITSLQAEDFATYYCQQYYSTPFTFGSGTELEIKR
## Result 0.0246

This collection of values is drawn from patent US20260055182A1.
